experiment: Solubility of antibacterial peptides in solution; format: physicochemical; settings: aqueous buffer; PBS; peptide 25 to 200 µM, 12 hours at room temperature; read-out: Solubility in solution PBS
Quantity Kind: solubility at 12 h

[in] // query solubility at 12 h value for entry CN[C@H](CC(C)C)C(=O)N[C@H]1C(=O)N[C@@H](CC(N)=O)C(=O)N[C@H]2C(=O)N[C@H]3C(=O)N[C@H](C(=O)N[C@H](C(=O)O)c4cc(O)cc(O)c4-c4cc3ccc4O)[C@H](O)c3ccc(c(Cl)c3)Oc3cc2cc(c3O[C@@H]2O[C@H](CO)[C@@H](O)[C@H](O)[C@H]2O[C@H]2C[C@](C)(N)[C@H](O)[C@H](C)O2)Oc2ccc(cc2Cl)[C@H]1O [Vancomycin, reference compound]
[out] > 200 µM

---

test: Solubility of antibacterial peptides in solution; assay type: physicochemical; settings: aqueous buffer
Square brackets hold non-standard residues; d marks the D form. Peptide text beside a SMILES is read from it.
Quantity Kind: solubility at 12 h

For orientation, consider the following solved cases.
Compound: CC[C@@H](C)[C@@H](NC(=O)[C@@H](Cc1c[nH]c2ccccc12)NC(=O)[C@H](NC(=O)[C@@H](CC(C)C)NC(=O)[C@H](N)Cc1c[nH]c2ccccc12)C(C)C)C(=O)N[C@H](Cc1c[nH]c2ccccc12)C(=O)N[C@H](CCC(N)=O)C(=O)N[C@H](CCCNC(=N)N)C(=O)N[C@H](CCCNC(=N)N)C(=O)N[C@H](CCCNC(=N)N)C(N)=O [KSH30, wlvwiwqrrr] (H-[dW][dL][dV][dW][dI][dW][dQ][dR][dR][dR]-NH2; N-terminus assumed)
solubility at 12 h: ≥ 25 µM
//
Compound: CC(C)[C@@H](NC(=O)[C@H](N)Cc1c[nH]c2ccccc12)C(=O)N[C@@H](C(=O)N[C@H](Cc1c[nH]c2ccccc12)C(=O)N[C@@H](C(=O)N[C@@H](C(=O)N[C@H](Cc1c[nH]c2ccccc12)C(=O)N[C@H](CCCNC(=N)N)C(=O)N[C@H](CCCNC(=N)N)C(=O)N[C@H](CCCNC(=N)N)C(N)=O)C(C)C)C(C)C)C(C)C [KSH42, wvvwvvwrrr] (H-[dW][dV][dV][dW][dV][dV][dW][dR][dR][dR]-NH2; N-terminus assumed)
solubility at 12 h: ≥ 100 µM
//
Compound: CC(C)[C@@H](NC(=O)[C@H](N)Cc1c[nH]c2ccccc12)C(=O)N[C@@H](C(=O)N[C@H](Cc1c[nH]cn1)C(=O)N[C@@H](C(=O)N[C@@H](C(=O)N[C@H](Cc1c[nH]c2ccccc12)C(=O)N[C@H](CCCNC(=N)N)C(=O)N[C@H](CCCNC(=N)N)C(=O)N[C@H](CCCNC(=N)N)C(N)=O)C(C)C)C(C)C)C(C)C [KSH45, wvvhvvwrrr] (H-[dW][dV][dV][dH][dV][dV][dW][dR][dR][dR]-NH2; N-terminus assumed)
solubility at 12 h: > 200 µM

[in] // query solubility at 12 h value for entry CC[C@@H](C)[C@@H](NC(=O)[C@@H](Cc1c[nH]c2ccccc12)NC(=O)[C@H](NC(=O)[C@@H](CC(C)C)NC(=O)[C@H](N)Cc1c[nH]c2ccccc12)C(C)C)C(=O)N[C@H](Cc1c[nH]c2ccccc12)C(=O)N[C@H](CCCNC(=N)N)C(=O)N[C@H](CCCNC(=N)N)C(N)=O [KSH32, wlvwiwrr] (H-[dW][dL][dV][dW][dI][dW][dR][dR]-NH2; N-terminus assumed)
[out] 25 µM

[in] Now the compound CC[C@@H](C)[C@@H](NC(=O)[C@@H](Cc1c[nH]c2ccccc12)NC(=O)[C@H](NC(=O)[C@@H](CC(C)C)NC(=O)[C@H](N)Cc1c[nH]c2ccccc12)C(C)C)C(=O)N[C@H](Cc1c[nH]c2ccccc12)C(=O)N[C@H](CCCNC(=N)N)C(=O)N[C@H](CCCNC(=N)N)C(=O)N[C@H](CCCNC(=N)N)C(N)=O [KSH29, wlvwiwrrr] (H-[dW][dL][dV][dW][dI][dW][dR][dR][dR]-NH2; N-terminus assumed)
[out] ≥ 100 µM

[in] Now the compound CC[C@@H](C)[C@@H](NC(=O)[C@@H](Cc1c[nH]c2ccccc12)NC(=O)[C@@H](CCCNC(=N)N)NC(=O)[C@@H](CCCNC(=N)N)NC(=O)[C@H](N)CCCNC(=N)N)C(=O)N[C@H](Cc1c[nH]c2ccccc12)C(=O)N[C@@H](C(=O)N[C@H](CC(C)C)C(=O)N[C@H](Cc1c[nH]c2ccccc12)C(=O)N[C@H](CCCCN)C(N)=O)C(C)C [KSH43, rrrwiwvlwk] (H-[dR][dR][dR][dW][dI][dW][dV][dL][dW][dK]-NH2; N-terminus assumed)
[out] > 200 µM

[in] Now the compound CC[C@@H](C)[C@@H](NC(=O)[C@@H](Cc1c[nH]c2ccccc12)NC(=O)[C@H](NC(=O)[C@@H](CC(C)C)NC(=O)[C@H](N)Cc1c[nH]c2ccccc12)C(C)C)C(=O)N[C@H](Cc1c[nH]c2ccccc12)C(=O)N[C@H](CCCNC(=N)N)C(=O)N[C@H](CCCNC(=N)N)C(=O)N[C@H](CCC(N)=O)C(=O)N[C@H](CCCNC(=N)N)C(N)=O [KSH31, wlvwiwrrqr] (H-[dW][dL][dV][dW][dI][dW][dR][dR][dQ][dR]-NH2; N-terminus assumed)
[out] ≥ 100 µM

---

system: MRAB (A. baumannii) ATCC BAA 1605; format: cell-based, Acinetobacter baumannii; conditions: ATCC BAA 1605, 18 h
Square brackets hold non-standard residues; d marks the D form. Peptide text beside a SMILES is read from it. * marks the point of attachment. Hexanoyl = CCCCCC(=O)*
Quantity Kind: MIC MRAB (A. baumannii) ATCC BAA 1605 (µM)
// return numeric value only (unit: µM, not printed)

Compound: CCCCCC(=O)NCCCC[C@@H](N)C(=O)N[C@H](Cc1c[nH]c2ccccc12)C(=O)N[C@H](CC(C)C)C(=O)N[C@H](CC(C)C)C(=O)N[C@H](Cc1c[nH]c2ccccc12)C(=O)N[C@@H](C(=O)NCC(=O)N[C@H](CC(C)C)C(=O)N[C@H](CCCNC(=N)N)C(=O)N[C@H](CCCCN)C(=O)N[C@H](CCCCN)C(=O)N[C@H](CCCNC(=N)N)C(N)=O)[C@H](C)CC [KSH9, kwllwiglrkkr] (H-[dK](Hexanoyl)[dW][dL][dL][dW][dI]G[dL][dR][dK][dK][dR]-NH2; N-terminus assumed)
Quantity Kind: MIC MRAB (A. baumannii) ATCC BAA 1605
Test Value: 5

Please look at the following compound next.
[in] // query MIC MRAB (A. baumannii) ATCC BAA 1605 value for entry CC[C@@H](C)[C@@H](NC(=O)[C@@H](Cc1c[nH]c2ccccc12)NC(=O)[C@@H](CCCNC(=N)N)NC(=O)[C@H](N)CCCNC(=N)N)C(=O)N[C@H](Cc1c[nH]c2ccccc12)C(=O)N[C@@H](C(=O)N[C@H](CC(C)C)C(=O)N[C@H](Cc1c[nH]c2ccccc12)C(=O)N[C@H](CCCNC(=N)N)C(N)=O)C(C)C [KSH54, rrwiwvlwr] (H-[dR][dR][dW][dI][dW][dV][dL][dW][dR]-NH2; N-terminus assumed)
[out] 0.63

---

tested on: MRAB (A. baumannii) ATCC BAA 1605; type: cell-based, Acinetobacter baumannii; details: ATCC BAA 1605, 18 h
Square brackets hold non-standard residues; d marks the D form. Peptide text beside a SMILES is read from it.
Quantity Kind: MIC MRAB (A. baumannii) ATCC BAA 1605 (µM)
// return numeric value only (unit: µM, not printed)

[in] // query MIC MRAB (A. baumannii) ATCC BAA 1605 value for entry CC(C)[C@@H](NC(=O)[C@@H](Cc1c[nH]c2ccccc12)NC(=O)[C@@H](Cc1c[nH]c2ccccc12)NC(=O)[C@H](NC(=O)[C@@H](Cc1c[nH]c2ccccc12)NC(=O)[C@@H](CCCNC(=N)N)NC(=O)[C@@H](CCCNC(=N)N)NC(=O)[C@H](N)CCCNC(=N)N)C(C)C)C(=O)N[C@H](Cc1c[nH]c2ccccc12)C(=O)N[C@H](Cc1c[nH]c2ccccc12)C(N)=O [KSH79, rrrwvwwvww] (H-[dR][dR][dR][dW][dV][dW][dW][dV][dW][dW]-NH2; N-terminus assumed)
[out] 10

---

test system: MRAB (A. baumannii) ATCC BAA 1605; format: cell-based, Acinetobacter baumannii; conditions: ATCC BAA 1605, 18 h
Square brackets hold non-standard residues; d marks the D form. Peptide text beside a SMILES is read from it.
Quantity Kind: MIC MRAB (A. baumannii) ATCC BAA 1605 (µM)
// return numeric value only (unit: µM, not printed)

For orientation, consider the following solved cases.
Compound: CC(C)[C@@H](NC(=O)[C@H](N)Cc1c[nH]c2ccccc12)C(=O)N[C@@H](C(=O)N[C@H](Cc1c[nH]c2ccccc12)C(=O)N[C@H](C)C(=O)N[C@H](C)C(=O)N[C@H](Cc1c[nH]c2ccccc12)C(=O)N[C@H](CCCNC(=N)N)C(=O)N[C@H](CCCNC(=N)N)C(=O)N[C@H](CCCNC(=N)N)C(N)=O)C(C)C [KSH72, wvvwaawrrr] (H-[dW][dV][dV][dW][dA][dA][dW][dR][dR][dR]-NH2; N-terminus assumed)
MIC MRAB (A. baumannii) ATCC BAA 1605 [µM]: 2.5

Compound: CC(C)[C@@H](NC(=O)[C@H](N)Cc1c[nH]c2ccccc12)C(=O)N[C@@H](C(=O)N[C@H](Cc1c[nH]c2ccccc12)C(=O)N[C@@H](C(=O)N[C@@H](C(=O)N[C@H](Cc1c[nH]c2ccccc12)C(=O)N[C@H](CCCCN)C(=O)N[C@H](CCCCN)C(=O)N[C@H](CCCCN)C(N)=O)C(C)C)C(C)C)C(C)C [KSH67, wvvwvvwkkk] (H-[dW][dV][dV][dW][dV][dV][dW][dK][dK][dK]-NH2; N-terminus assumed)
MIC MRAB (A. baumannii) ATCC BAA 1605 [µM]: 1.25

[in] // query MIC MRAB (A. baumannii) ATCC BAA 1605 value for entry CC[C@@H](C)[C@@H](NC(=O)[C@@H](Cc1c[nH]c2ccccc12)NC(=O)[C@@H](CCCNC(=N)N)NC(=O)[C@@H](CCCNC(=N)N)NC(=O)[C@H](N)CCCNC(=N)N)C(=O)N[C@H](Cc1c[nH]c2ccccc12)C(=O)N[C@@H](C(=O)N[C@H](CC(C)C)C(=O)N[C@H](Cc1c[nH]c2ccccc12)C(=O)N[C@H](CCCCN)C(=O)N[C@H](CC(N)=O)C(N)=O)C(C)C [KSH68, rrrwiwvlwkn] (H-[dR][dR][dR][dW][dI][dW][dV][dL][dW][dK][dN]-NH2; N-terminus assumed)
[out] 0.63
